Test: Krafft point of 1% dispersion of surfactant in water
Assay type: physicochemical
Conditions: 1% dispersion in water
Exercise: for every item that follows, state its recorded Krafft Pt..
Write it as a number; the unit °C goes unstated.

Fill blank: measured Krafft Pt. of the compound CCCCCCCCCCCCOC(=O)OC(CC)CS(=O)(=O)O (stereo not drawn) [S2DBC] is ____.
0

Fill blank: measured Krafft Pt. of the compound CCCCCCCCCCCC(=O)OCCS(=O)(=O)O [SLI, sodium lauroyl isethionate, reference compound] is ____.
24

Fill blank: measured Krafft Pt. of the compound CCCCCCCCCCCCOC(=O)OC(C)CS(=O)(=O)O (stereo not drawn) [SIDC] is ____.
15

Fill blank: measured Krafft Pt. of the compound CCCCCCCCCCCCOC(=O)OCCS(=O)(=O)O.[Na] is ____.
24

Fill blank: measured Krafft Pt. of the compound CCCCCCCCCCC(C)OC(=O)OC(C)CS(=O)(=O)O (stereo not drawn) [SI2DC] is ____.
30

Fill blank: measured Krafft Pt. of the compound CCCCCCCCCCC(C)OC(=O)OCCS(=O)(=O)O (stereo not drawn) [SE2DC, Sodium 2-sulfoethyl 2-dodecylcarbonate] is ____.
0
